Answer each item with its documented pEC50.
molecular target: S1P1 (Homo sapiens (Human), UniProt P21453); assay: Receptor [35S] GTPγS Binding Assay, S1P1/CHO cell membranes; conditions: membranes from S1P1/CHO cells; rounded to two significant digits
Sequence (P21453 whole entry): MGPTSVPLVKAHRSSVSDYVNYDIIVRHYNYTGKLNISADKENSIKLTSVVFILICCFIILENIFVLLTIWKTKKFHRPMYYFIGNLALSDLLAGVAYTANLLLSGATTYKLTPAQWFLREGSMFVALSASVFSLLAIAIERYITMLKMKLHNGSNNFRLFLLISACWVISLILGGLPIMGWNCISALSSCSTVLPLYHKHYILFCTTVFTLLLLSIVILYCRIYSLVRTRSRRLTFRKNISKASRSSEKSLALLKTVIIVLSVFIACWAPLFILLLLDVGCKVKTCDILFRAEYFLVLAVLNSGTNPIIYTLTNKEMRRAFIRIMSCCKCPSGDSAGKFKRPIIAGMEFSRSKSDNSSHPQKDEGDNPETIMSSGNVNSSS
// pEC50 is dimensionless: -log10 of concentration (M)

Exercise: What value of pEC50 has been recorded for this entry: "FC(F)(F)c1cc(-c2noc(CCC3(c4ccccc4)CCCCC3)n2)cc(C(F)(F)F)c1"
Key: 6.55

Exercise: Likewise for "Nc1ncccc1-c1noc(CCC2(c3ccccc3)CCCCC2)n1" ?
Key: 7.17

Exercise: Likewise for "c1ccc(-c2noc(CCC3(c4ccccc4)CCCCC3)n2)cc1" ?
Key: 6.89

Exercise: Likewise for "Fc1ccc(-c2noc(CCC3(c4ccccc4)CCCCC3)n2)cc1F" ?
Key: 6.48

Exercise: Likewise for "Cc1cccc(-c2noc(CCC3(c4ccccc4)CCCCC3)n2)c1" ?
Key: 6.28

Exercise: Likewise for "COc1ccc(OC)c(-c2noc(CCC3(c4ccccc4)CCCCC3)n2)c1" ?
Key: 5.31

Exercise: Likewise for "COc1cc(OC)cc(-c2noc(CCC3(c4ccccc4)CCCCC3)n2)c1" ?
Key: 5.66

Exercise: Likewise for "Nc1cc(-c2noc(CCC3(c4ccccc4)CCCCC3)n2)ccn1" ?
Key: 7.44

Exercise: Likewise for "Clc1ncn(Cc2cccc(-c3noc(CCC4(c5ccccc5)CCCCC4)n3)c2)c1Cl" ?
Key: 5.49

###

molecular target: S1P3 (Homo sapiens (Human)); assay: Receptor [35S] GTPγS Binding Assay, EDG3-Ga15-bla HEK293T cell membranes; details: membranes from EDG3-Ga15-bla HEK293T cells; rounded to two significant digits
Sequence (Q99500 whole entry): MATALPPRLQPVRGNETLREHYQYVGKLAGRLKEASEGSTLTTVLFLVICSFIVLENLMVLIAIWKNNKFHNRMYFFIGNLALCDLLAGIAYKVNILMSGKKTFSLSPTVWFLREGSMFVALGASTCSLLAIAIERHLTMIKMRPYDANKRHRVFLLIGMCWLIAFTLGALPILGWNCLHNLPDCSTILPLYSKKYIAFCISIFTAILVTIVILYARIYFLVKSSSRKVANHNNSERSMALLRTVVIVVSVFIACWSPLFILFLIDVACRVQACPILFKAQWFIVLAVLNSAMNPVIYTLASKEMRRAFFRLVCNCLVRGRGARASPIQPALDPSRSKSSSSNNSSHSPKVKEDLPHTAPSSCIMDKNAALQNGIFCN
Measured metric: EC50

Exercise: What value of EC50 has been recorded for this entry: "c1ccc(-c2noc(CCC3(c4ccccc4)CCCCC3)n2)cc1"
Key: 630 nM

Exercise: Likewise for "Clc1ccc(-c2noc(CCC3(c4ccccc4)CCCCC3)n2)c(Cl)c1" ?
Key: 1200 nM

Exercise: Likewise for "Nc1ncccc1-c1noc(CCC2(c3ccccc3)CCCCC2)n1" ?
Key: 550 nM

Exercise: Likewise for "Fc1ccc(-c2noc(CCC3(c4ccccc4)CCCCC3)n2)cc1F" ?
Key: 5900 nM

Exercise: Likewise for "Cc1cccc(-c2noc(CCC3(c4ccccc4)CCCCC3)n2)c1" ?
Key: 2200 nM

Exercise: Likewise for "Clc1ncn(Cc2cccc(-c3noc(CCC4(c5ccccc5)CCCCC4)n3)c2)c1Cl" ?
Key: 1300 nM

Exercise: Likewise for "FC(F)(F)c1cccc(-c2noc(CCC3(c4ccccc4)CCCCC3)n2)c1" ?
Key: > 62000 nM

Exercise: Likewise for "FC(F)(F)c1cc(-c2noc(CCC3(c4ccccc4)CCCCC3)n2)cc(C(F)(F)F)c1" ?
Key: > 62000 nM

Cited source for all entries: patent US9187437B2
